# System: PPARg DBDmut IVT, anti-PPARg (DBD mutation: PPARg1 K132A/R137A, NR concentration 270 nM)
# EXPERIMENT SUMMARY: PBM binding z-score (relative to random genomic background probes); higher = stronger binding; sequences stand for … in GC…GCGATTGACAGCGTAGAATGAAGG

RESIDUES: TCTATTAGTTGATTAGGGCCACCGAAACAGCGGA
MEASURED TARGET: PPARg DBDmut IVT, anti-PPARg (DBD mutation: PPARg1 K132A/R137A, NR concentration 270 nM)
PBM binding z-score: 0.609

RESIDUES: TAGCCTAGGTCATGGGGCCAGTATAGTACGCATC
MEASURED TARGET: PPARg DBDmut IVT, anti-PPARg (DBD mutation: PPARg1 K132A/R137A, NR concentration 270 nM)
PBM binding z-score: -0.401

RESIDUES: ATCTCTAGCTAAAGTTCAGTGAAAGATCGATAGA
MEASURED TARGET: PPARg DBDmut IVT, anti-PPARg (DBD mutation: PPARg1 K132A/R137A, NR concentration 270 nM)
PBM binding z-score: 0.86

RESIDUES: ATATGTAGGGTAAGGGTCATTCAGGTTGGTTCGC
MEASURED TARGET: PPARg DBDmut IVT, anti-PPARg (DBD mutation: PPARg1 K132A/R137A, NR concentration 270 nM)
PBM binding z-score: 4.1

RESIDUES: GGAACGAGGGCAAGCTGATAGCAGAGTTTGATGG
MEASURED TARGET: PPARg DBDmut IVT, anti-PPARg (DBD mutation: PPARg1 K132A/R137A, NR concentration 270 nM)
PBM binding z-score: -0.924

RESIDUES: CCGACTGGGGCAAAGGTGACCATACTCAGTACGA
MEASURED TARGET: PPARg DBDmut IVT, anti-PPARg (DBD mutation: PPARg1 K132A/R137A, NR concentration 270 nM)
PBM binding z-score: -0.959
